- System: KG1a cells
- procedureDetails: MTT cell viability assay, KG1a cells
- Format: cell-based
- cond: Homo sapiens, KG-1a, 48 h
attributeMeasured: IC50

1. COc1cccc2c1C(=O)c1c(O)c3c(c(O)c1C2=O)C[C@@](O)(C(C)=O)C[C@@H]3O[C@H]1C[C@H](N)[C@H](O)[C@H](C)O1    1080 nM

====

- Tested on: HL60 cells
- procedureDetails: MTT cell viability assay, HL60 cells
- Assay type: cell-based
- cond: Homo sapiens, HL-60, 48 h
- Experimental: Briefly, effect of drugs alone and in combinations were determined for a 3-5 log scale of concentrations of drugs and with a constant ratio between the two drugs used for co-treatment. Cells were seeded in 96-well plates (50 000 cell/well). […] Cell viability was determined with MTT assay. […] Absorbance of the solution was determined at 540 nm. HL60, KG1, KG1a and MV4-11 cells were seeded in 96-well plates (50 000 cells/well). […] Absorbance of the solution was determined at 540 nm. […]
pIC50: −log10 of the molar value.
As shown below, each of these compounds has a reported pIC50 value.
attributeMeasured: pIC50

1) Nc1ccn([C@@H]2O[C@H](CO)[C@@H](O)[C@@H]2O)c(=O)n1 [Cytarabine]    6.80
2) COc1cccc2c1C(=O)c1c(O)c3c(c(O)c1C2=O)C[C@@](O)(C(C)=O)C[C@@H]3O[C@H]1C[C@H](N)[C@H](O)[C@H](C)O1 [Daunorubicin]    7.21
3) O=c1[nH]cc(F)c(=O)[nH]1 [5-Fluorouracil]    2.61
